Measurement description: Toxicity liver stage against HepG2, at 10uM
Format: cell-based
Set-up: test concentration 10 uM, cell line HepG2-A16-CD81EGFP
Run conditions: human, HepG2-A16-CD81EGFP cells; read-out: INHIBITION
Recorded endpoint: cytotoxicity at 10 µM (%)
Please respond with the number in % and leave the unit unwritten.

Solved entries:
What cytotoxicity at 10 µM value was documented for this molecule, COCCC1CN(Cc2cn(CCC(N)=O)c3ccccc23)CCO1 (stereo not drawn) ? -3.15

Proceed to Cc1cc(N(C)C)nc(C2(C)CCCN2C(=O)c2cnccn2)n1 (stereo not drawn) -1.19

Proceed to `COc1cc(NC(=O)NCCO)ccc1N1CCOC1=O` -0.803

Proceed to Cc1ccc(NC(C)C(=O)NCc2cccs2)cc1C (stereo not drawn) -16.4

Proceed to CN1CCc2nc(C3CCCN(S(=O)(=O)N4CCCC4)C3)ncc2C1 (stereo not drawn) 2.4

Proceed to CCc1cc(NCC(O)CN2CCCC2)ncn1 (stereo not drawn) 6.09

Proceed to Cc1nc(CN2CCC3(CCCO3)CCC2=O)no1 (stereo not drawn) -0.452

Proceed to O=c1[nH]c(CN2CCOC(Cn3cccn3)C2)nc2ccccc12 (stereo not drawn) -2.32

Continuing:
What cytotoxicity at 10 µM value was documented for this molecule, COc1cccc(C(=O)N2CCN(CC(O)c3ccccc3)CC2)c1 (stereo not drawn) ? -46.7

Proceed to Cn1ccnc1CN1CCN(CC(O)c2ccco2)CC1 (stereo not drawn) 2.38

Proceed to `Cn1cnc2c1CCN(Cc1cccc(C(=O)N3CCCCC3)c1)C2` -2.75

Proceed to Cc1cc(C2CCCN2C(=O)c2ccc(OCC(N)=O)cc2)no1 (stereo not drawn) -43.9

Proceed to `COc1ccc(NC(=O)Cc2c(C)nn(C)c2C)cc1F` 10.1

Proceed to `COc1cccc(C(=O)NS(=O)(=O)c2cccc(C#N)c2)c1OC` -8.06

Proceed to NC(=O)c1cnn2c1NCC(CNCCOc1ccccc1)C2 (stereo not drawn) -11.4

Proceed to `Cc1cnc(N2CC[C@@H]3CN(Cc4ccncc4)CCO[C@@H]3C2)nc1` 3.23

Proceed to `CCN(C)C[C@@H]1CN(Cc2cccc(O)c2)C[C@@H]1CO` -1.13

Proceed to Cc1cnn(CC(C)NCC(=O)NC2CCOCC2)c1 (stereo not drawn) 15.6

Proceed to Cc1nc(CNCc2cccc(OC34CCCN(CC3)C4)c2)n[nH]1 (stereo not drawn) -3.69

Proceed to `Cc1cccn2c(=O)cc(OC(=O)c3ccc(OC(C)C)cc3)nc12` 10

Proceed to Cn1cc(C(=O)CC2CCCN2C(=O)c2coc3ccccc23)cn1 (stereo not drawn) -0.65

Proceed to `NC(=O)CS(=O)(=O)Cc1csc(-c2ccc(F)cc2)n1` -4.95

Proceed to O=C(CCc1ccsc1)NCC1CCN(C2CC2)C1 (stereo not drawn) 2.63

Proceed to Fc1ccc2c(c1)C(NCc1nnc3n1CCCCC3)CCCO2 (stereo not drawn) -9.52

Proceed to `CC(C)(C)CN[C@@H]1CO[C@H](CNC(=O)c2ccncc2)[C@H]1O` -2.5

Proceed to Cc1cc(CN(C)C(=O)NC(C)c2nncn2C)no1 (stereo not drawn) 8.79
